Target: USP28 (USP28-5(1-1077)-TEV-6*His; LifeSensors) (Homo sapiens, UniProt Q96RU2)
Construct: construct USP28 (USP28-5(1-1077)-TEV-6*His; LifeSensors); TEV cleavage site (C); 6xHis (C); purchased LifeSensors
Sequence (Q96RU2 1-1077): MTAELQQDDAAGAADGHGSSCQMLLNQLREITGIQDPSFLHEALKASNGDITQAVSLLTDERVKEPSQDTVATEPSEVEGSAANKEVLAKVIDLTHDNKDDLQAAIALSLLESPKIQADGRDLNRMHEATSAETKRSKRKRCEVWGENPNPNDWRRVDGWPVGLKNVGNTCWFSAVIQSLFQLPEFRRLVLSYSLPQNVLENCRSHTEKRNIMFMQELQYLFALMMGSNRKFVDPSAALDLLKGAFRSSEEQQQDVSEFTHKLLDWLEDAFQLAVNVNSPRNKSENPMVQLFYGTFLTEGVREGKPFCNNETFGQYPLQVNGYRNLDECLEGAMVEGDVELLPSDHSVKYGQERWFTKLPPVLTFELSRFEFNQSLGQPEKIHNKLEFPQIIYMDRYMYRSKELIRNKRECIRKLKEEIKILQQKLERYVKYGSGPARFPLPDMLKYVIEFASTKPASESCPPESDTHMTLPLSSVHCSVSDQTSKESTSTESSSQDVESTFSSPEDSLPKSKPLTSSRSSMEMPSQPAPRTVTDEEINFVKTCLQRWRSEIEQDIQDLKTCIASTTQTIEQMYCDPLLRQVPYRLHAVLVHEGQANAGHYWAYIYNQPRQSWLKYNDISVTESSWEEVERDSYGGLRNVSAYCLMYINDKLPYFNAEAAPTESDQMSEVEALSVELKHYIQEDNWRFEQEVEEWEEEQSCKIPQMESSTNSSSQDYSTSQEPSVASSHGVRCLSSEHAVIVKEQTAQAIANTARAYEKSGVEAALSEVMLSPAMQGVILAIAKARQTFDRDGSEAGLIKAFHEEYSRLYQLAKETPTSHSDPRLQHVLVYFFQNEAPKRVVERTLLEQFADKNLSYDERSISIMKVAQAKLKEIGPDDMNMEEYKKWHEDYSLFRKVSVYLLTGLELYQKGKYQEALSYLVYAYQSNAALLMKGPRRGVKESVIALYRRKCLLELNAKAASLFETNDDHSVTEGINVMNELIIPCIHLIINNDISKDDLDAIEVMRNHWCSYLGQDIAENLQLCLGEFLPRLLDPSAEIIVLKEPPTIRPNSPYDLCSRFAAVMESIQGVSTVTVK
Experiment: Ubiquitin-Rhodamine 110 Assay for USP28 Activity, Example A-1(b)
Type: biochemical
Conditions: Ubiquitin-Rhodamine 110 assay, Example A-1(b)

Compound | USP28 A-1(b) IC50 range
COc1ccc2c(N)c(C(=O)N[C@@H]3CCc4cc(N5CC6CCC(C5)N6)ccc4C3)sc2n1 (single isomer, unassigned) | + (>2 μM)
Cc1nc2sc(C(=O)N[C@@H]3COc4cc(N5CC6CCC(C5)N6)c(F)cc4C3)c(N)c2s1 | ++ (0.2-2 μM)
Cc1cnc2c(N)c(C(=O)N[C@@H]3CCc4cc(N5CCCNCC5)ccc4C3)sc2n1 | + (>2 μM)
O=C(N[C@H]1COc2cc(N3CCNCC3)ccc2C1)c1ccc(NCc2cccc(Cl)c2)nc1 | ++ (0.2-2 μM)
